# Tested on: Nicotinate-nucleotide adenylyltransferase NadD (Staphylococcus aureus N315)
# Experiment summary: inhibitors of S. aureus NadD, primary screen, biochemical, colorimetric, uHTS (AID 602399)
# Setup conditions: purified NadD enzyme, colorimetric absorbance read-out; at 20 µM; active compounds read high
In all, about 360,000 compounds went through this assay and about 2,800 (0.78%) were called active. For the sample, actives were picked, then their nearest neighbours and some compounds at random.
Endpoint: inhibition (%)
Numbers only, in %.

Need inhibition for each of these compounds.
1. Cc1ccc(-n2c(C)cc(/C=N/Nc3ccc([N+](=O)[O-])cn3)c2C)c(C)c1
2. COc1cccc(OCc2cc(/C=N/NC(=O)c3nc(Cl)c(Cl)c(N)c3Cl)ccc2OC)c1

Reply:
1. 44.4
2. 45.5

Fill in inhibition for each of the 2 compounds listed.
1. CCOc1ccc(-c2n[nH]c(=S)n2/N=C/c2cc3c(cc2[N+](=O)[O-])OCO3)cc1
2. Cc1occc1C(=O)NC1CCCN(Cc2ccc(CC(C)C)cc2)C1 (stereo not given)

Reply:
1. 33.3
2. -6.31

Ask: Please look up its inhibition: Cc1ccc(S(=O)(=O)N/N=C\c2cc3c(cc2[N+](=O)[O-])OCO3)cc1
Reply: -4.98

###

# Test system: Nicotinate-nucleotide adenylyltransferase NadD (Staphylococcus aureus N315)
# Experiment summary: inhibitors of S. aureus NadD, primary screen, biochemical, colorimetric, uHTS (AID 602399)
# Setup conditions: purified NadD enzyme, colorimetric absorbance read-out; at 20 µM
In all, about 360,000 compounds went through this assay and about 2,800 (0.78%) were called active. Cut-off read from the data, not from the text of the source: active = inhibition above about 26%; inactive = the rest. This is one part of a sample in which actives are shown more often than they occur.
Write down one outcome, taken from true for active, false for inactive

Ask: Any idea what this test logged for C/C(CC(=O)Nc1ccc(Cl)cc1)=N\NC(=O)C(=O)NCCO ?
Reply: false

Ask: // param item: Cc1ccc(NC(=O)CCNC(=O)c2ccc([N+](=O)[O-])cc2)cc1S(=O)(=O)N1CCOCC1 ; yields the recorded call
Reply: false

Ask: So what was the verdict on CCCc1nc2c3ccccc3ccn2c1Cc1ccccc1C(F)(F)F in this test?
Reply: false

Ask: Assay result, entry C/C(=N\NC(=O)c1cc(-c2ccc(O)cc2)nc2ccccc12)c1cccnc1 — outcome?
Reply: false

Ask: Outcome logged for NS(=O)(=O)c1ccc(NC(=O)COC(=O)CCc2c[nH]c3ccccc23)cc1 in this assay:
Reply: false

Ask: Recorded test call requested for COc1ccc(NS(=O)(=O)c2cc(NC(=O)CC(=O)c3ccc([N+](=O)[O-])cc3)ccc2C)cc1
Reply: true

Ask: How was CC1CC(C)CN(C(=O)CCNC(=O)Cn2cnc3ccccc3c2=O)C1 (stereo not given) classified in this test?
Reply: false

###

# System: Nicotinate-nucleotide adenylyltransferase NadD (Staphylococcus aureus N315)
# Experiment summary: inhibitors of S. aureus NadD, primary screen, biochemical, colorimetric, uHTS (AID 602399)
# Setup conditions: purified NadD enzyme, colorimetric absorbance read-out; at 20 µM
The campaign covered roughly 360,000 compounds. About 2,800 (0.78%) were called active. No stated cut-off is given here; in the data, active means inhibition above about 26%; inactive means the rest. Many of the other results were omitted from the sample, so actives are more common in it than they were.
Valid outcomes are listed here; reply with one: class 1 for active, class 0 for inactive

Ask: For Cc1c(CN2CCCCC2)c(O)n(CCO)c(=O)c1C#N , what call appears in the results of this test?
Reply: class 0

Origin of values: PubChem BioAssay AID602399
